From: patent US9555039B2

Known IC50 of a selection of compounds
# testTarget: Recombinant His-tagged NAMPT (Homo sapiens, UniProt P43490)
# Construct: His; host or cells: E. coli
# Sequence (P43490 whole entry): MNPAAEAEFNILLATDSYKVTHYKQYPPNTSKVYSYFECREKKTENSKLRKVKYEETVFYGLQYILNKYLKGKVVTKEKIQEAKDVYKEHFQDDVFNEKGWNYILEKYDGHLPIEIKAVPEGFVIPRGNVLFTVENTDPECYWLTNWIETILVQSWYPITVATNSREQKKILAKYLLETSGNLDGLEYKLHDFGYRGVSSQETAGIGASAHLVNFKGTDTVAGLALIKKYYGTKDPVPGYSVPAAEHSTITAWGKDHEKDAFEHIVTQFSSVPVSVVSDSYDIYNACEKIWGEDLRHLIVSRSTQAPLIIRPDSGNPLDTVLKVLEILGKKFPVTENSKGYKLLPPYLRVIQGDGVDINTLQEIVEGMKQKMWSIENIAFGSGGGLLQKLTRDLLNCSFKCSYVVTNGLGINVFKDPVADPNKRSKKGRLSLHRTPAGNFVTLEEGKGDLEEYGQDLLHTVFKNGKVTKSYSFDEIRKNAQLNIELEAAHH
# experimentNotes: Biochemical inhibition assay: NAMPT enzymatic reaction, NMN quantified by mass spectrometry
# assayContext: 33 nM NAMPT, 1 μM NAM, 100 μM PRPP, […] ATP, 30 minutes at room temperature; read-out: Biochem IC50

{"testSmiles": "Cc1ncsc1C(=O)N1CCC(CCCCNC(=O)c2cc3cnccc3[nH]2)CC1", "unitDescriptor": "µM", "IC50": 0.0054}
{"testSmiles": "O=C(NCCCCC1CCN(S(=O)(=O)c2cccc(OC(F)(F)F)c2)CC1)c1cc2cnccc2[nH]1", "unitDescriptor": "µM", "IC50": 0.0778}
{"testSmiles": "COc1ccc(OC)c(S(=O)(=O)N2CCC(CCCCNC(=O)c3cc4cnccc4[nH]3)CC2)c1", "unitDescriptor": "µM", "IC50": 0.0284}
{"testSmiles": "O=C(NCCCCC1CCN(S(=O)(=O)c2ccccc2OC(F)(F)F)CC1)c1cc2cnccc2[nH]1", "unitDescriptor": "µM", "IC50": 0.0226}
{"testSmiles": "O=C(NCCCCC1CCN(C(=O)c2ccccc2)CC1)c1cc2ccncc2s1", "unitDescriptor": "µM", "IC50": 0.0063}
{"testSmiles": "O=C(NCCCCC1CCN(S(=O)(=O)c2ccc(OC(F)(F)F)cc2)CC1)c1cc2cnccc2[nH]1", "unitDescriptor": "µM", "IC50": 0.076}

###

Known IC50 of a selection of compounds
# testTarget: Recombinant His-tagged NAMPT (Homo sapiens)
# Construct: His; host or cells: E. coli
# experimentNotes: Biochemical inhibition assay: NAMPT enzymatic reaction, NMN quantified by mass spectrometry
# assayContext: 33 nM NAMPT, 1 μM NAM, 100 μM PRPP, 2.5 mM ATP, 30 minutes at room temperature; read-out: Biochem IC50
measurementType: IC50

{"testSmiles": "COc1ccccc1C(=O)N1CCC(CCCCNC(=O)c2cc3cnccc3[nH]2)CC1", "measured": "14.4 nM"}
{"testSmiles": "CC(C)S(=O)(=O)N1CCC(CCCCNC(=O)c2cc3cnccc3[nH]2)CC1", "measured": "30.6 nM"}
{"testSmiles": "O=C(NCCCCC1CCN(C(=O)c2cccc(F)c2)CC1)c1ccc2nccn2c1", "measured": "9.2 nM"}
{"testSmiles": "COc1ccc(Cl)cc1C(=O)N1CCC(CCCCNC(=O)c2cc3ccncc3s2)CC1", "measured": "14.1 nM"}
{"testSmiles": "O=C(NCCCCC1CCN(C(=O)c2cnccc2C(F)(F)F)CC1)c1cc2ccncc2s1", "measured": "9.9 nM"}
{"testSmiles": "O=C(NCCCCC1CCN(C(=O)c2cccc(F)c2)CC1)c1cc2ccncc2s1", "measured": "7.7 nM"}
{"testSmiles": "O=C(NCCCCC1CCN(C(=O)c2ccc3[nH]ccc3c2)CC1)c1ccc2nccn2c1", "measured": "19.5 nM"}
{"testSmiles": "O=C(NCCCCC1CCN(C(=O)c2ccc3c(c2)OCO3)CC1)c1cc2ccncc2s1", "measured": "21.1 nM"}
{"testSmiles": "CC(C)Oc1ccc(C(=O)N2CCC(CCCCNC(=O)c3ccc4nccn4c3)CC2)cc1", "measured": "55.2 nM"}
{"testSmiles": "O=C(NCCCCC1CCN(C(=O)c2ccc(N3CCOCC3)nc2)CC1)c1cc2cnccc2[nH]1", "measured": "64.7 nM"}
{"testSmiles": "O=C(NCCCCC1CCN(C(=O)c2ccc(OC(F)(F)F)cc2)CC1)c1cc2ccncc2s1", "measured": "166 nM"}
{"testSmiles": "COc1ccc(C(=O)N2CCC(CCCCNC(=O)c3cc4cnccc4[nH]3)CC2)c(OC)c1", "measured": "67.1 nM"}
{"testSmiles": "O=C(NCCCCC1CCN(C(=O)c2ccc(F)c(F)c2)CC1)c1ccc2nccn2c1", "measured": "19 nM"}

###

# testTarget: Recombinant His-tagged NAMPT (Homo sapiens, UniProt P43490)
# Construct: His; host or cells: E. coli
# experimentNotes: Biochemical inhibition assay: NAMPT enzymatic reaction, NMN quantified by mass spectrometry
# assayContext: 33 nM NAMPT, 1 μM NAM, 100 μM PRPP, 2.5 mM ATP, 30 minutes at room temperature; read-out: Biochem IC50
Known IC50 of a selection of compounds
measurementType: IC50 (nM)

{"testSmiles": "O=C(NCCCCC1CCN(C(=O)c2ccc3ncsc3c2)CC1)c1ccc2nccn2c1", "measurementType": "IC50", "unitDescriptor": "nM", "measured": 23.7}
{"testSmiles": "O=C(NCCCCC1CCN(C(=O)c2cc3ccccc3s2)CC1)c1cc2ccncc2s1", "measurementType": "IC50", "unitDescriptor": "nM", "measured": 17.7}
{"testSmiles": "O=C(NCCCCC1CCN(S(=O)(=O)c2ccc(C(F)(F)F)nc2)CC1)c1cc2cnccc2[nH]1", "measurementType": "IC50", "unitDescriptor": "nM", "measured": 81.5}
{"testSmiles": "O=C(NCCCCC1CCN(C(=O)c2ccc(OC(F)(F)F)cc2)CC1)c1cc2cnccc2[nH]1", "measurementType": "IC50", "unitDescriptor": "nM", "measured": 145}
{"testSmiles": "O=C(NCCCCC1CCN(C(=O)c2ccc3ncsc3c2)CC1)c1cc2ccncc2s1", "measurementType": "IC50", "unitDescriptor": "nM", "measured": 32.3}
{"testSmiles": "Cc1cnc(C(=O)N2CCC(CCCCNC(=O)c3cc4cnccc4[nH]3)CC2)cn1", "measurementType": "IC50", "unitDescriptor": "nM", "measured": 115}
{"testSmiles": "CSc1ncccc1C(=O)N1CCC(CCCCNC(=O)c2ccc3nccn3c2)CC1", "measurementType": "IC50", "unitDescriptor": "nM", "measured": 5.5}
{"testSmiles": "O=C(NCCCCC1CCN(C(=O)c2ccc(Cl)cc2Cl)CC1)c1cc2cnccc2[nH]1", "measurementType": "IC50", "unitDescriptor": "nM", "measured": 70}
{"testSmiles": "O=C(NCCCCC1CCN(C(=O)c2ccc(OC(F)(F)F)cc2)CC1)c1ccc2nccn2c1", "measurementType": "IC50", "unitDescriptor": "nM", "measured": 91}
{"testSmiles": "O=C(NCCCCC1CCN(C(=O)c2ccc(Cl)c(Cl)c2)CC1)c1cc2ccncc2s1", "measurementType": "IC50", "unitDescriptor": "nM", "measured": 34.5}
{"testSmiles": "O=C(NCCCCC1CCN(C(=O)c2csc(C(F)(F)F)n2)CC1)c1cc2ccncc2s1", "measurementType": "IC50", "unitDescriptor": "nM", "measured": 94}
{"testSmiles": "O=C(NCCCCC1CCN(C(=O)c2cc3ccccc3s2)CC1)c1ccc2nccn2c1", "measurementType": "IC50", "unitDescriptor": "nM", "measured": 25.8}
{"testSmiles": "COc1ccc(S(=O)(=O)N2CCC(CCCCNC(=O)c3cc4cnccc4[nH]3)CC2)c(OC)c1", "measurementType": "IC50", "unitDescriptor": "nM", "measured": 19.1}
{"testSmiles": "O=C(NCCCCC1CCN(C(=O)c2cnc(C(F)(F)F)nc2)CC1)c1cc2ccncc2s1", "measurementType": "IC50", "unitDescriptor": "nM", "measured": 158}
{"testSmiles": "O=C(NCCCCC1CCN(C(=O)c2ccc(F)c(F)c2)CC1)c1cc2ccncc2s1", "measurementType": "IC50", "unitDescriptor": "nM", "measured": 22.9}
{"testSmiles": "COc1ccc(OC)c(C(=O)N2CCC(CCCCNC(=O)c3ccc4nccn4c3)CC2)c1", "measurementType": "IC50", "unitDescriptor": "nM", "measured": 42.9}
{"testSmiles": "O=C(NCCCCC1CCN(C(=O)c2ccc(C(F)(F)F)cn2)CC1)c1cc2cnccc2[nH]1", "measurementType": "IC50", "unitDescriptor": "nM", "measured": 137}
{"testSmiles": "Cc1c(F)cccc1C(=O)N1CCC(CCCCNC(=O)c2cc3ccncc3s2)CC1", "measurementType": "IC50", "unitDescriptor": "nM", "measured": 6.8}
{"testSmiles": "O=C(NCCCCC1CCN(C(=O)c2ccoc2)CC1)c1cc2cnccc2[nH]1", "measurementType": "IC50", "unitDescriptor": "nM", "measured": 9.1}
{"testSmiles": "O=C(NCCCCC1CCN(C(=O)c2ccc(C(F)(F)F)cn2)CC1)c1cc2ccncc2s1", "measurementType": "IC50", "unitDescriptor": "nM", "measured": 91.8}
{"testSmiles": "O=C(NCCCCC1CCN(C(=O)c2cnc(C(F)(F)F)nc2)CC1)c1cc2cnccc2[nH]1", "measurementType": "IC50", "unitDescriptor": "nM", "measured": 242}
{"testSmiles": "Cc1nc(C(=O)N2CCC(CCCCNC(=O)c3cc4ccncc4s3)CC2)cs1", "measurementType": "IC50", "unitDescriptor": "nM", "measured": 22.4}
{"testSmiles": "O=C(NCCCCC1CCN(C(=O)c2ccc(C(F)(F)F)nc2)CC1)c1cc2cnccc2[nH]1", "measurementType": "IC50", "unitDescriptor": "nM", "measured": 278}
{"testSmiles": "O=C(NCCCCC1CCN(C(=O)c2cccnc2)CC1)c1cc2ccncc2s1", "measurementType": "IC50", "unitDescriptor": "nM", "measured": 11.1}
{"testSmiles": "O=C(NCCCCC1CCN(C(=O)c2cccc(Cl)c2Cl)CC1)c1cc2cnccc2[nH]1", "measurementType": "IC50", "unitDescriptor": "nM", "measured": 31.2}
{"testSmiles": "Cc1nc(C(=O)N2CCC(CCCCNC(=O)c3ccc4nccn4c3)CC2)cs1", "measurementType": "IC50", "unitDescriptor": "nM", "measured": 31.4}
{"testSmiles": "Cc1ccc(C(=O)N2CCC(CCCCNC(=O)c3cc4cnccc4[nH]3)CC2)cn1", "measurementType": "IC50", "unitDescriptor": "nM", "measured": 65.1}
{"testSmiles": "O=C(NCCCCC1CCN(S(=O)(=O)c2cc(F)ccc2F)CC1)c1cc2cnccc2[nH]1", "measurementType": "IC50", "unitDescriptor": "nM", "measured": 11.1}
{"testSmiles": "O=C(NCCCCC1CCN(C(=O)c2ccccc2OC(F)(F)F)CC1)c1cc2cnccc2[nH]1", "measurementType": "IC50", "unitDescriptor": "nM", "measured": 20.5}
{"testSmiles": "O=C(NCCCCC1CCN(C(=O)c2cc3ccccc3s2)CC1)c1cc2cnccc2[nH]1", "measurementType": "IC50", "unitDescriptor": "nM", "measured": 124}
{"testSmiles": "O=C(NCCCCC1CCN(C(=O)c2cc(F)ccc2F)CC1)c1ccc2nccn2c1", "measurementType": "IC50", "unitDescriptor": "nM", "measured": 5}
